System: BEAS-2B human bronchial epithelial cell line
Test: Gene expression change by high-throughput RNA sequencing (NextSeq 500) in ketone-exposed BEAS-2B cells
Type: cell-based
Settings: IC5 conc.: Acetone 5.38, 2-Butanone 22.27, 2-Pentanone 5.24, 2-Hexanone 14.82, 2-Heptanone 5.05 mM
Each entry below carries its recorded Fold change ZNF487 (NR_026693).
Please state the value as a number alone, without comment.

CCCC(C)=O [2-Pentanone, 2-pentanone]
0.354
CCCCC(C)=O [2-Hexanone, 2-hexanone]
0.358
CC(C)=O [Acetone, acetone]
0.354
CCCCCC(C)=O [2-Heptanone, 2-heptanone]
0.354

q: So what's the measured Fold change ZNF487 (NR_026693) for this one? CCC(C)=O [2-Butanone, 2-butanone]
a: 0.356

###

# Fold change SERPINA12 (NM_001304461) listing for each entry below
System: BEAS-2B human bronchial epithelial cell line
Assay: Gene expression change by high-throughput RNA sequencing (NextSeq 500) in ketone-exposed BEAS-2B cells
Format: cell-based
Details: IC5 conc.: Acetone 5.38, 2-Butanone 22.27, 2-Pentanone 5.24, 2-Hexanone 14.82, 2-Heptanone 5.05 mM
Response field accepts a number only; no unit should be typed.

# annotated cases, reported Fold change SERPINA12 (NM_001304461) shown
CCCC(C)=O [2-Pentanone, 2-pentanone]
0.354
CCCCCC(C)=O [2-Heptanone, 2-heptanone]
0.354
CCC(C)=O [2-Butanone, 2-butanone]
0.356
CC(C)=O [Acetone, acetone]
0.354

Pending compound:
q: Fill blank: measured Fold change SERPINA12 (NM_001304461) of the compound CCCCC(C)=O [2-Hexanone, 2-hexanone] is ____.
a: 0.358

###

// Fold change USP12-AB1 (NR_046647) lookup, one value per entry
System: BEAS-2B human bronchial epithelial cell line
Assay: Gene expression change by high-throughput RNA sequencing (NextSeq 500) in ketone-exposed BEAS-2B cells
Assay type: cell-based
Details: IC20 conc.: Acetone 71.90, 2-Butanone 106.21, 2-Pentanone 39.38, 2-Hexanone 52.51, 2-Heptanone 20.22 mM
Lab note: jot down the number only; don't add units.

CCCC(C)=O [2-Pentanone, 2-pentanone]
2.362

q: Fill in the blank: the reported Fold change USP12-AB1 (NR_046647) of CCCCCC(C)=O [2-Heptanone, 2-heptanone] is ____.
a: 4.509

q: Entry under review: CC(C)=O [Acetone, acetone] . Reported Fold change USP12-AB1 (NR_046647)?
a: 6.910

q: Any idea what its Fold change USP12-AB1 (NR_046647) is? The compound is CCCCC(C)=O [2-Hexanone, 2-hexanone]
a: 3.988

q: Need Fold change USP12-AB1 (NR_046647) of CCC(C)=O [2-Butanone, 2-butanone] , thanks.
a: 5.570

###

System: BEAS-2B human bronchial epithelial cell line
Assay: Gene expression change by high-throughput RNA sequencing (NextSeq 500) in ketone-exposed BEAS-2B cells
Format: cell-based
Details: IC5 conc.: Acetone 5.38, 2-Butanone 22.27, 2-Pentanone 5.24, 2-Hexanone 14.82, 2-Heptanone 5.05 mM
In this section, each of the compounds is paired with its reported Fold change VIPR†-AS1 (NR_046654).
Lab note: jot the number down without any unit.

CCCCCC(C)=O
0.354
CC(C)=O
0.354
CCCC(C)=O
0.354

q: // returns reported Fold change VIPR†-AS1 (NR_046654) for input CCCCC(C)=O
a: 0.358

q: // lookup Fold change VIPR†-AS1 (NR_046654) for CCC(C)=O
a: 0.356
